test: In vitro microsomal stability, rat; type: in vitro ADME; conditions: Table 16, 6 min
Exam item: assign criterion met to entries whose % of compound remaining when incubated in rat liver microsomes is below 80% and criterion not met to entries at or above 80%. Note that a value of exactly 80% receives criterion not met.

>>> cat("CCN1CCN(CCNC(=O)C2NC(CC(C)(C)C)C3(C(=O)Nc4cc(Cl)ccc43)C2c2cccc(Cl)c2F)CC1 (stereo not shown)")
"criterion met"
>>> cat("CN1CCC(CCNC(=O)C2NC(CC(C)(C)C)C3(C(=O)Nc4cc(Cl)ccc43)C2c2cccc(Cl)c2F)CC1 (stereo not shown)")
"criterion not met"
>>> cat("CC(C)(C)CC1NC(C(=O)NCCN2CCOCC2)C(c2cccc(Cl)c2F)C12C(=O)Nc1cc(Cl)ccc12 (stereo not shown)")
"criterion met"
>>> cat("CN1CCN(CCNC(=O)C2NC(CC(C)(C)C)C3(C(=O)Nc4cc(Cl)ccc43)C2c2cccc(Cl)c2F)CC1 (stereo not shown)")
"criterion met"
>>> cat("CC(C)(C)C[C@H]1N[C@@H](C(=O)NCCC2CCC(O)C2)[C@H](c2cccc(Cl)c2)[C@@]12C(=O)Nc1cc(Cl)c(F)cc12 (stereo partly shown)")
"criterion met"
>>> cat("CC(C)(C)CC1NC(C(=O)NCCN2CCCC2)C(c2cccc(Cl)c2F)C12C(=O)Nc1cc(Cl)ccc12 (stereo not shown)")
"criterion not met"
>>> cat("CC(C)N1CCN(CCNC(=O)[C@@H]2N[C@H](CC(C)(C)C)[C@]3(C(=O)Nc4cc(Cl)ccc43)[C@H]2c2cccc(Cl)c2F)CC1")
"criterion met"

----------
assay: In vitro microsomal stability, rat; assay type: in vitro ADME; settings: Table 16, 0 min
Recorded % of compound remaining when incubated in rat liver microsomes for the following molecules
attribute measured: % of compound remaining when incubated in rat liver microsomes (%)

>>> readout_value("CCN1CCN(CCNC(=O)C2NC(CC(C)(C)C)C3(C(=O)Nc4cc(Cl)ccc43)C2c2cccc(Cl)c2F)CC1 (stereo not drawn) [MI-129]")
100
>>> readout_value("CC(C)(C)CC1NC(C(=O)NCCN2CCOCC2)C(c2cccc(Cl)c2F)C12C(=O)Nc1cc(Cl)ccc12 (stereo not drawn) [MI-63]")
100
>>> readout_value("CC(C)(C)C[C@H]1N[C@@H](C(=O)NCCC2CCC(O)C2)[C@H](c2cccc(Cl)c2)[C@@]12C(=O)Nc1cc(Cl)c(F)cc12 (stereo partly drawn) [MI-225]")
100

----------
tested on: Isogenic HCT-116 colon cancer cell lines; test: cells; type: cell-based; settings: Homo sapiens, HCT-116, read-out: Inhibition of cell growth IC50, HCT116 p53 KO, Table 19B; HCT116 p53 KO;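 note: cells grown in 96-well plates in McCoy's 5A medium with 10% FBS, exposed to compound for 4 days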
pIC50: −log10 of the molar value.
Below, each entry is listed with its recorded pIC50.
attribute measured: pIC50

>>> readout_value("CCCCC(C)(C)C[C@H]1N[C@@H](C(=O)NCC[C@H](O)CO)[C@H](c2cccc(Cl)c2)[C@@]12C(=O)Nc1cc(Cl)c(F)cc12")
5.28
>>> readout_value("CC(C)(C)C[C@H]1N[C@@H](C(=O)N2CCN(C(=O)C3CC3)CC2)[C@H](c2cccc(Cl)c2)[C@@]12C(=O)Nc1cc(Cl)c(F)cc12")
5.24
>>> readout_value("O=C(NCC[C@H](O)CO)[C@@H]1N[C@H](CCc2ccccc2)[C@]2(C(=O)Nc3cc(Cl)c(F)cc32)[C@H]1c1cccc(Cl)c1")
4.47
>>> readout_value("CN1[C@@H](C(=O)NCC[C@H](O)CO)[C@H](c2cccc(Cl)c2)[C@@]2(C(=O)Nc3cc(Cl)c(F)cc32)[C@H]1CCCc1ccccc1")
5.03

----------
assay: In vitro microsomal stability, rat; type: in vitro ADME; conditions: rat liver microsomes, NADPH, 5 min
Below, each of the compounds is paired with its reported % of compound remaining when incubated in rat liver microsomes with NADPH value.
attribute measured: % of compound remaining when incubated in rat liver microsomes with NADPH

>>> readout_value("CC(C)(C)C[C@H]1N[C@@H](C(=O)N[C@H]2CC[C@@H](O)C2)[C@H](c2cccc(Cl)c2F)[C@@]12C(=O)Nc1cc(Cl)ccc12 [MI-519-51]")
"12.77%"
>>> readout_value("CC(C)(C)C[C@H]1N[C@@H](C(=O)NC2CCC(O)CC2)[C@H](c2cccc(Cl)c2F)[C@@]12C(=O)Nc1cc(Cl)ccc12 (stereo partly drawn) [MI-773]")
"81.32%"
>>> readout_value("CC(C)(C)C[C@H]1N[C@@H](C(=O)NCCC(C)(O)CO)[C@H](c2cccc(Cl)c2)[C@@]12C(=O)Nc1cc(Cl)c(F)cc12 (stereo partly drawn) [MI-758]")
"96.52%"

----------
Examples of compounds with documented Microsomal stability, % remaining follow.
assay: In vitro microsomal stability, human; format: in vitro ADME; conditions: Human Microsome, same batch, 45 min
attribute measured: Microsomal stability, % remaining

>>> readout_value("CC(C)(C)C[C@H]1N[C@@H](C(=O)NCC[C@H](O)CNC(C)(C)C)[C@H](c2cccc(Cl)c2)[C@@]12C(=O)Nc1cc(Cl)c(F)cc12")
"41.18%"
>>> readout_value("CC(C)(C)C[C@H]1N[C@@H](C(=O)NCC[C@H](O)CN2CCCC2)[C@H](c2cccc(Cl)c2)[C@@]12C(=O)Nc1cc(Cl)c(F)cc12")
"55.85%"
>>> readout_value("CC(C)(C)C[C@H]1N[C@@H](C(=O)NCC[C@H](O)CN2CC[C@@H](O)C2)[C@H](c2cccc(Cl)c2)[C@@]12C(=O)Nc1cc(Cl)c(F)cc12")
"40.08%"
>>> readout_value("CC(C)(C)C[C@H]1N[C@@H](C(=O)NCCC(C)(O)CO)[C@H](c2cccc(Cl)c2)[C@@]12C(=O)Nc1cc(Cl)c(F)cc12 (some centres unmarked)")
"54.52%"
>>> readout_value("CC(O)C(O)CCNC(=O)[C@@H]1N[C@H](CC(C)(C)C)[C@]2(C(=O)Nc3cc(Cl)c(F)cc32)[C@H]1c1cccc(Cl)c1 (some centres unmarked)")
"13.25%"

----------
Reported Cmax values follow for various compounds
assay: Pharmacokinetic studies in rats; format: in vivo, rat; conditions: rat, plasma; male rats, oral dose 15 mg/kg; read-out: Cmax
attribute measured: Cmax

>>> readout_value("CC(C)(C)C[C@H]1N[C@@H](C(=O)NCC[C@H](O)CN2CCCC2)[C@H](c2cccc(Cl)c2)[C@@]12C(=O)Nc1cc(Cl)c(F)cc12")
"102 ng/mL"
>>> readout_value("CC(C)(C)C[C@H]1N[C@@H](C(=O)NCCC(C)(O)CO)[C@H](c2cccc(Cl)c2)[C@@]12C(=O)Nc1cc(Cl)c(F)cc12 (stereo partly shown)")
"1490 ng/mL"
>>> readout_value("CC(C)(C)C[C@H]1N[C@@H](C(=O)NCC[C@H](O)CNC(C)(C)C)[C@H](c2cccc(Cl)c2)[C@@]12C(=O)Nc1cc(Cl)c(F)cc12")
"35 ng/mL"
>>> readout_value("CC(C)(C)C[C@H]1N[C@@H](C(=O)NCC[C@H](O)CN2CC[C@@H](O)C2)[C@H](c2cccc(Cl)c2)[C@@]12C(=O)Nc1cc(Cl)c(F)cc12")
"51 ng/mL"

----------
Listing of entries alongside the reported pIC50.
tested on: cancer cell lines with wild-type p53 / mutated or deleted p53 (ATCC); assay: Cell growth assay (WST-8), other cancer cell lines; assay type: cell-based; conditions: Homo sapiens, PC-3, Table 19C; PC3 cells; read-out: Cell growth inhibition using WST assay, PC3 IC50
pIC50: −log10 of the molar value.
attribute measured: pIC50

>>> readout_value("CC(C)(C)C[C@H]1N[C@@H](C(=O)NCC[C@H](O)CO)[C@H](Cc2ccccc2)[C@@]12C(=O)Nc1cc(Cl)c(F)cc12")
"< 5.00"
>>> readout_value("O=C(NCC[C@H](O)CO)[C@H]1[C@H](c2cccc(Cl)c2)[C@@]2(C(=O)Nc3cc(Cl)c(F)cc32)[C@H]2CC3(CCCC3)CCN12")
"< 5.00"
>>> readout_value("CNC[C@@H](O)CCNC(=O)[C@@H]1N[C@H](CC(C)(C)C)[C@]2(C(=O)Nc3cc(Cl)c(F)cc32)[C@H]1c1ccc(F)c(Cl)c1")
"< 5.00"
>>> readout_value("CC(C)(C)C[C@H]1N[C@@H](C(=O)NC[C@H](O)[C@H](O)CO)[C@H](Cc2cccc(Cl)c2)[C@@]12C(=O)Nc1cc(Cl)c(F)cc12")
"< 5.00"
>>> readout_value("CN(C)C[C@@H](O)CCNC(=O)[C@@H]1N[C@H](CC(C)(C)C)[C@]2(C(=O)Nc3cc(Cl)c(F)cc32)[C@H]1c1ccc(F)c(Cl)c1")
"< 5.30"
>>> readout_value("CC(C)(C)C[C@H]1N[C@@H](C(=O)NCC[C@H](O)COC(=O)CC(=O)O)[C@H](c2ccc(F)c(Cl)c2)[C@@]12C(=O)Nc1cc(Cl)c(F)cc12")
"< 5.00"
>>> readout_value("CC[C@H]1N[C@@H](C(=O)NCCN2CCOCC2)[C@H](c2cccc(Cl)c2)[C@@]12C(=O)Nc1cc(Cl)c(F)cc12")
"< 5.00"
>>> readout_value("O=C(NCC[C@H](O)CO)[C@@H]1N[C@H](CC2(CCO)CCCC2)[C@]2(C(=O)Nc3cc(Cl)c(F)cc32)[C@H]1c1cccc(Cl)c1")
"< 4.52"
>>> readout_value("CN(CC[C@H](O)CO)C(=O)[C@@H]1N[C@H](CC(C)(C)C)[C@]2(C(=O)Nc3cc(Cl)c(F)cc32)[C@H]1c1cccc(Cl)c1")
"< 5.00"
>>> readout_value("CC(C)(CCO)C[C@H]1N[C@@H](C(=O)NCC[C@H](O)CO)[C@H](c2cccc(Cl)c2)[C@@]12C(=O)Nc1cc(Cl)c(F)cc12")
"< 4.52"
>>> readout_value("CC(C)(C)C[C@H]1N[C@@H](C(=O)NCCN2CCN(C(=O)CO)CC2)[C@H](c2cccc(Cl)c2)[C@@]12C(=O)Nc1cc(Cl)c(F)cc12")
4.63
>>> readout_value("CC(C)(C)C[C@H]1N[C@@H](C(=O)NCC[C@H](O)CO)[C@H](c2cc(Cl)ccn2)[C@@]12C(=O)Nc1cc(Cl)c(F)cc12")
"< 5.00"
>>> readout_value("CC(C)(C)C[C@H]1N[C@@H](C(=O)NCC[C@H](O)CN)[C@H](c2cccc(Cl)c2)[C@@]12C(=O)Nc1cc(Cl)c(F)cc12")
"< 5.00"
>>> readout_value("CC(C)(C)C[C@H]1N[C@@H](C(=O)NCC[C@H](O)CO)[C@H](c2cncc(Cl)c2)[C@@]12C(=O)Nc1cc(Cl)c(F)cc12")
"< 4.52"
